Every entry's value here was drawn from patent US20230272055A1.

measuredOn: T1, Recombinant MBP-mutCALR Type 1 fusion protein (human)
T1 construct: custom made at Cepter; also called recombinant mutCALR protein
protocolDetails: SPR, IgG captured, 1:1 fit, Exp. 1
Each entry below lists one item and its recorded kon value.
Write down the numeric answer in M⁻¹ s⁻¹ and omit the unit.

binder: anti-mutCALR antibody clone 33 (antibody, human IgG1, lambda, V domains shown, human IgG1) VH: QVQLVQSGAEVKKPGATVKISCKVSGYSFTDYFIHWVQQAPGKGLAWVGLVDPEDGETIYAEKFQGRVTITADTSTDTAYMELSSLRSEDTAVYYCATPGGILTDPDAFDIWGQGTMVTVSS VL: QSALTQPRSVSGSPGQSVTISCAGTGSDVGGYNHVSWYQHHPGKAPKLMIYDVNKRPSGVPDRFSGSKSGNTASLTISGLQAEDEADYYCSSYIPSSTRWVFGGGTKLTVLG
kon, M⁻¹ s⁻¹: 775000

binder: anti-mutCALR antibody clone 16 (antibody, human IgG1, lambda, V domains shown, human IgG1) VH: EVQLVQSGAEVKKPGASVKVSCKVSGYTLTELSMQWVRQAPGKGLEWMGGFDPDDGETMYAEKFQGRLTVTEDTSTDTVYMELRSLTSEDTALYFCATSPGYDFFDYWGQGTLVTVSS VL: SYVLTQPPSVSVAPGKTARITCGGNNTGSKSVHWYQQKPGQAPVLVVYDDSDRPSGIPERFSGSNSGNTATLTINRVEAGDEADYYCQVWDSSNDLLIFGGGTKLTVLG
kon, M⁻¹ s⁻¹: 2.84e+06

// query kon value for entry anti-mutCALR antibody clone 30 (antibody, human IgG1, lambda, V domains shown, human IgG1) VH: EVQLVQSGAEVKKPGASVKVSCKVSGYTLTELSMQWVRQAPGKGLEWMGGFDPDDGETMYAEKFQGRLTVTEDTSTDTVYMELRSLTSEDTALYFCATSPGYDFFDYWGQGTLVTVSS VL: SYVLTQPPSVSVAPGKTATITCGGNNIGTKSVHWYQQKPGQAPVLVVYDDSDRPSGIPERFSGSNSGNTATLTINRVEAGDEADYYCQVWDSSNDLLIFGGGTKLTVLG
231000
